Biological target: T1, human claudin 6 (CLDN6) (human, UniProt P56747 1-220)
T1 construct: also called human CLDN6; hCLDN6
T1 sequence: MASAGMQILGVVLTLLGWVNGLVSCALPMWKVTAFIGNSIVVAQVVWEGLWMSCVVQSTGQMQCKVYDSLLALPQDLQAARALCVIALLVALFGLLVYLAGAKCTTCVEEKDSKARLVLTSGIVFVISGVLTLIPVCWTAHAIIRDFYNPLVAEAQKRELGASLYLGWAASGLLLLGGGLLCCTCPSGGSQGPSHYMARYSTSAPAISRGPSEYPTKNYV
Experiment: FACS, HEK293T/human CLDN6 cells
Protocol: For affinity determination, CLDN6 over-expressing HEK293T cells and cancer cell line PA-1 which express high levels of human CLDN6 were used to evaluate the binding activity of BG87P related engineering variants. […] EC50 values for dose-dependent binding to CLDN6 expressing cell lines were determined by fitting the dose-response data to the four-parameter logistic model with GraphPad Prism. […]
List of EC50 values.
Give the value, in units of nM, as a plain number.

Study these solved cases before continuing.
{"columns": ["binder", "EC50 (nM)"],
 "data": [
  ["BG87P-Bz6 (antibody, V domains shown) VH: QIQLVQSGAEVKKPGASVKVSCKASGYSFTDYHINWVRQAPGQRLEWMGWIYPGSGYTKYNEKFKVRVTLTVDTSASTAYMELSSLRSEDTAVYFCARSGIYHYVSSYYFDHWGKGTTVTVSS VL: DIQMTQSPSTLSASVGDRVTITCKASQDVGTAVAWYQQKPGKAPKLLIYWASTRHTGVPSRFSGSGSGTEFTLTISSVQPDDFATYFCQQYSSYTFGGGTKVEIK", 2.79],
  ["BG87P-m4 (antibody, V domains shown, Variant of chBG87P with H33A; constant regions not restated (parent: human IgG1/kappa)) VH: QIQLQQSGPELVKPGASVKISCKASGYSFTDYAINWVKQRPGQGLEWIGWIYPGSGYTKYNEKFKVKATLTVDTSSSTAYMHLTSLTSEDSAVYFCARSGIYHYVSSYYFDHWGQGTTLTVSS VL: DIVMTQSHTFMSTSVGDRVSITCKASQDVGTAVAWYQQKPGQSPKLLIYWASTRHTGVPDRFTGSGSGTDFTLTISNVQSEDLADYFCQQYSSYTFGGGTKLEIK", 11.8],
  ["BG87P-m1 (antibody, V domains shown, PTM removal variant of chBG87P; constant regions not restated (parent: human IgG1/kappa)) VH: QIQLQQSGPELVKPGASVKISCKASGYSFTDYHINWVKQRPGQGLEWIGWIYPGSGYTKYNEKFKVKATLTVDTSSSTAYMHLTSLTSEDSAVYFCARSGIYHYVSSYYFEHWGQGTTLTVSS VL: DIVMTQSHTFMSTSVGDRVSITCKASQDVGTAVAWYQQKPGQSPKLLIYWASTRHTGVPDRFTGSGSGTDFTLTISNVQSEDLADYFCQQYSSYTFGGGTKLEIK", 3.56],
  ["BG87P-m6 (antibody, V domains shown, PTM removal variant of BG87P-Bz0; constant regions not restated (parent: human IgG1/kappa)) VH: QIQLVQSGAEVKKPGASVKVSCKASGYSFTDYHINWVRQAPGQRLEWMGWIYPGSGYTKYNEKFKVRVTLTVDTSASTAYMELSSLRSEDTAVYFCARSGIYHYVSSYYFQHWGKGTTVTVSS VL: DIQMTQSPSTLSASVGDRVTITCKASQDVGTAVAWYQQKPGKSPKLLIYWASTRHTGVPSRFSGSGSGTEFTLTISSVQPDDFATYFCQQYSSYTFGGGTKVEIK", 2.34]
]}

Okay, now this binder:
**Query** GET /values?readout=EC50&item= BG87P-m5 (antibody, V domains shown, PTM removal variant of BG87P-Bz0; constant regions not restated (parent: human IgG1/kappa)) VH: QIQLVQSGAEVKKPGASVKVSCKASGYSFTDYHINWVRQAPGQRLEWMGWIYPGSGYTKYNEKFKVRVTLTVDTSASTAYMELSSLRSEDTAVYFCARSGIYHYVSSYYFEHWGKGTTVTVSS VL: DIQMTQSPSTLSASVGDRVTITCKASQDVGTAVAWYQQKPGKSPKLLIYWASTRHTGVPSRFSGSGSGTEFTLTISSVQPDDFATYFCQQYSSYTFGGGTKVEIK
**Result** 4.19
